- Tested on: oat, wild (wild oat, Avena fatua)
- experimental_details: Test D pre-/postemergence: oat, wild
- Format: in vivo
- condition_summary: Preemergence; 125 g ai/ha; scale 0 to 100
- From the text: […] Treated plants and controls were maintained in a controlled growth environment for 14 to 21 days after which time all species were compared to controls and visually evaluated. […]
measured_parameter: Plant response rating, Oat, Wild

molecule | obs_value
Cc1nn(-c2ccc(C(F)(F)F)c(F)c2)nc1Oc1ccnc(C(F)(F)F)c1 [Compound 148] | 65
CCc1nn(-c2ccc(C(F)(F)F)cc2)nc1Cc1ccnc(C(F)(F)F)c1 [Compound 155] | 60
Cc1nn(-c2ccc(C(F)(F)F)cn2)nc1Cc1cccc(C(F)(F)F)c1 [Compound 106] | 10
Cc1nn(-c2ccc(F)c(C(F)(F)F)c2)nc1Cc1ccnc(C(F)(F)F)c1 [Compound 156] | 90
CCOc1nn(-c2ccc(F)cc2)nc1Cc1ccnc(C(F)(F)F)c1 [Compound 196] | 100
